B1: POU domain, class 5, transcription factor 1, residues 134 to 212; numbered along this chain, Q01860 (parent)
chain: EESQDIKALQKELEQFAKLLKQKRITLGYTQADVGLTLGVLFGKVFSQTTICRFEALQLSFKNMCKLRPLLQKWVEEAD

Variants of: B1
Assay: abundance fitness (aPCA) (normalised: wild type 0, dead -1); higher = more abundant; growth selection in yeast, the domain comes from the species named
Settings: Homo sapiens
Listed here are variants together with their documented abundance fitness.
Reply: number alone, nothing else.

Worked examples follow.
Q48E    0.484
G28L    -0.76
D79V    0.111
Q72W    -0.837
T37H    0.162
E1M    0.273
M64P    -0.604
L9Y    -0.164
F54E    -0.828
L27H    -0.387

Which abundance fitness value is on record for "K73L" ?
-0.289

Note, next up: "F54S"
-0.562

Note, next up: "K66F"
0.04

Note, next up: "A56G"
-0.06

Note, next up: "Q31F"
-0.009

Note, next up: "V75I"
0.056

Note, next up: "K7N"
-0.022

Note, next up: "V40G"
-0.01

Note, next up: "V75T"
-0.299

Note, next up: "Q72A"
-0.354

Note, next up: "A56M"
0.159

Note, next up: "P69Q"
-0.618

Note, next up: "A78P"
-0.549

Note, next up: "T30S"
0.082

Note, next up: "L9Q"
0.106

Where these numbers come from: the Human Domainome abundance scans (Beltran et al. 2025)
